Measured Target: human recombinant A2A receptor (Homo sapiens, UniProt P29274)
Sequence (P29274 whole entry): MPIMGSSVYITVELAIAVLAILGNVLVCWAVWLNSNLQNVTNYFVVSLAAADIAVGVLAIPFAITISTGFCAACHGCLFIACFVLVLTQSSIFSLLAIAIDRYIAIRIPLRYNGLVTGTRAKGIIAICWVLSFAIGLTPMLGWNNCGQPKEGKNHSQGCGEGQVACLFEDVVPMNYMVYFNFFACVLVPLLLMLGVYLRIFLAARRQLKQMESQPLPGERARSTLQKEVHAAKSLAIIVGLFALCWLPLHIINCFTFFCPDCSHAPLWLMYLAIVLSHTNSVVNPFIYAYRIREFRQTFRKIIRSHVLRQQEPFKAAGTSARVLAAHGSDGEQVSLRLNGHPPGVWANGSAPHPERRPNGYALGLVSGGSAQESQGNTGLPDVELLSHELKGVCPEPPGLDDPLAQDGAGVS
Method: Adenosine 2A receptor subtype competition radioligand binding assay
Assay Conditions: [3H]-ZM241385, Hela cell membranes
Description: Adenosine 2A Receptor Subtype Competition Radioligand Binding Assay Membranes were prepared from Hela cells stably transfected with the human recombinant A2A receptor. […] Finally, the pellet was resuspended in 100-500 μl storage buffer (Tris-HCl 50 mM pH 7.4) where the total protein content was determined. […]
Recorded Ki by entry
Parameter Measured: Ki (µM)

* c1cncc(Nc2ncc(-c3ccncn3)c(-c3cccs3)n2)c1 [Example 6] | 0.62
* c1cncc(Nc2ncc(-c3ccncn3)c(-c3ccco3)n2)c1 [Example 1] | 2.54
